- study-target: T1, ZIKV (prM80E) with a C-terminal myc-myc-hexahistidine tag (Zika virus, UniProt A0A024B7W1 104-694)
- T1 construct: also called ZIKV (prM80E)-mmH; ZIKV-mmH
- assay-overview: SPR, mAb captured, 37C, pH 5.0 chase
property-name: t½ (s)
Respond with the bare value in s.

Need t½, item H4H25591P (antibody, V domains shown) VH: QVQLVESGGGVVQPGRSLRLSCAASGFTFSYSGMHWVRQAPGKGLEWVAVISYDGINKYYADSVKGRFTISRDNSKNTLYLQMNSLRPEDTAVYYCAKDRGGRFDPWGQGTLVTVSS VL: DIQMTQSPSSLSASVGDRVTITCRASQGISNYLAWYQQKPGKVPNLLIYGASTLHSGVPSRFSGSGSGTDFTLTISSLQPADVATYYCQKYNSAPLTFGGGTKVEIK
48
